Test system: MDA-MB-231 cells
Test: Annexin V/PI flow cytometry
Format: cell-based, human
Details: read-out: IC50 for induction of apoptosis; MDA-MB-231, 48 h treatment
pIC50: −log10 of the molar value.
quantity: pIC50

{"compound": "COc1cc(C(Nc2ccccn2)c2cc3c(cc2O)OCO3)cc(OC)c1OC (stereo not shown)", "study target": "MDA-MB-231 cells", "quantity": "pIC50", "observed value": "4.70 to 5.00"}
